Experiment: Hit scoring on safety in human subjects and pharmacokinetics
Conditions: peak plasma concentration vs IC50
Listed compounds paired with reported Score (PK)
Endpoint: Score (PK)

>  <Compound>
CC[n+]1c(/C=C/c2ccc(N3CCCC3)cc2)cccc1/C=C/c1ccc(N2CCCC2)cc1.[I-] [Stilbazium iodide]

>  <Recorded Value>
0

$$$$
>  <Compound>
COc1ccc(-c2nc(N3CCOCC3)c3sc(CN(C)c4ncc(C(=O)NO)cn4)cc3n2)cn1

>  <Recorded Value>
0

$$$$
>  <Compound>
COc1ccc(NC(=O)N2CCCCN3[C@H](CN(C)C)[C@H](c4ccc(C#Cc5ccccc5)cc4)[C@@H]3C2)cc1

>  <Recorded Value>
0

$$$$
>  <Compound>
C[C@@H]1O[C@@H](O[C@@H]2C=C3CC[C@@H]4[C@H](CC[C@]5(C)[C@@H](c6ccc(=O)oc6)CC[C@]45O)[C@@]3(C)CC2)[C@H](O)[C@H](O)[C@H]1O

>  <Recorded Value>
0

$$$$
>  <Compound>
CC(C)(C)NCc1ccc(Nc2ccnc3cc(Cl)ccc23)cc1O

>  <Recorded Value>
0

$$$$
>  <Compound>
CN(C)Cc1c(C(=O)NCCOc2ccc(C(=O)NO)cc2)oc2ccccc12

>  <Recorded Value>
0

$$$$

====

Test: TD-6450 phase I clinical study (SAD/MAD): pharmacokinetics
Format: in vivo, human
Conditions: female, human, plasma, oral, 60 mg, Female subjects, SAD arm NCT02022306, Dose 60.00, 8 Hours; read-out: Concentration
Endpoint: concentration at 8 h (ng/mL)

>  <Chemical Smiles>
CNC(=O)N1C[C@@H](C)N(c2ccc(C(=O)Nc3ccc(-c4ccc(-c5c[nH]c([C@@H]6CCCN6C(=O)[C@@H](NC(=O)OC)C(C)C)n5)cc4)c(OC(F)(F)F)c3)cn2)C[C@@H]1C

>  <Uom>
ng/mL

>  <Recorded Value>
87.4

$$$$

====

Assay: TD-6450 phase I clinical study (SAD/MAD): pharmacokinetics
Format: in vivo, human
Conditions: female, human, plasma, oral, 5 mg, Female subjects, SAD arm NCT02022306, Dose 5.00, 48 Hours; read-out: Concentration

>  <Compound>
CNC(=O)N1C[C@@H](C)N(c2ccc(C(=O)Nc3ccc(-c4ccc(-c5c[nH]c([C@@H]6CCCN6C(=O)[C@@H](NC(=O)OC)C(C)C)n5)cc4)c(OC(F)(F)F)c3)cn2)C[C@@H]1C [TD-6450]

>  <Uom>
ng/mL

>  <concentration at 48 h>
2.13

$$$$

====

Assay: TD-6450 phase I clinical study (SAD/MAD): pharmacokinetics
Assay type: in vivo, human
Details: human, in vivo, 5 mg; Male subjects, SAD arm NCT02022306, Dose 5.00, 120 Hours; read-out: Concentration

>  <Chemical Smiles>
CNC(=O)N1C[C@@H](C)N(c2ccc(C(=O)Nc3ccc(-c4ccc(-c5c[nH]c([C@@H]6CCCN6C(=O)[C@@H](NC(=O)OC)C(C)C)n5)cc4)c(OC(F)(F)F)c3)cn2)C[C@@H]1C

>  <concentration at 120 h>
1.48 ng/mL

$$$$

====

Experiment: TD-6450 phase I clinical study (SAD/MAD): pharmacokinetics
Format: in vivo, human
Conditions: female, human, plasma, oral, 15 mg, Female subjects, SAD arm NCT02022306, Dose 15.00, 12 Hours; read-out: Concentration

>  <Chemical Smiles>
CNC(=O)N1C[C@@H](C)N(c2ccc(C(=O)Nc3ccc(-c4ccc(-c5c[nH]c([C@@H]6CCCN6C(=O)[C@@H](NC(=O)OC)C(C)C)n5)cc4)c(OC(F)(F)F)c3)cn2)C[C@@H]1C

>  <Uom>
ng/mL

>  <concentration at 12 h>
10.7

$$$$
